Kindly state viability, T/C for each of the entries shown.
Tested on: 616215-338-R-J1-PDC complex spheroid growth, % test/control;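 note: spheroids exposed to agents for seven days before readout; 100% = DMSO vehicle control viability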
Experiment: Anticancer human tumor 616215-338-R-J1-PDC patient-derived colon adenocarcinoma cell line growth inhibition [Asc]
Conditions: second compound 1 µM; first compound 3 µM; hits give low values

# input molecule: Cc1nc(N2CCC3(CC2)COC(C)C3N)c(CO)nc1Sc1ccnc(N)c1Cl (stereo not drawn) + CNC(C)C(=O)NC1CN(S(=O)(=O)c2cccc(S(=O)(=O)N3CCC4CCC(C(=O)NC(c5ccccc5)c5ccccc5)N4C(=O)C(NC(=O)C(C)NC)C3)c2)CCC2CCC(C(=O)NC(c3ccccc3)c3ccccc3)N2C1=O ; wanted: its viability, T/C
# output 12.8%

# input Would you mind doing CCN1C(C(=O)NC23CCC(C(=O)O)(CC2)CC3)C(c2cccc(Cl)c2F)C2(C(=O)Nc3cc(Cl)ccc32)C12CCCCC2 (stereo not drawn) + CNC(C)C(=O)NC1CN(S(=O)(=O)c2cccc(S(=O)(=O)N3CCC4CCC(C(=O)NC(c5ccccc5)c5ccccc5)N4C(=O)C(NC(=O)C(C)NC)C3)c2)CCC2CCC(C(=O)NC(c3ccccc3)c3ccccc3)N2C1=O as well?
# output 39.5%

Consider the additional molecule presented here.
# input Sample CCN1C(C(=O)NC23CCC(C(=O)O)(CC2)CC3)C(c2cccc(Cl)c2F)C2(C(=O)Nc3cc(Cl)ccc32)C12CCCCC2 (stereo not drawn) + Cc1c(S(C)(=O)=O)c(-c2cc(F)cc(N3CCN(c4ccc(NS(=O)(=O)c5ccc(NC(CCN6CCC(C(=O)OCCCP(=O)(O)O)CC6)CSc6ccccc6)c(S(=O)(=O)C(F)(F)F)c5)cc4)CC3)c2)c(-c2ccc(Cl)cc2)n1C(C)C — what was its viability, T/C?
# output 0.18%
